Numbers sourced from patent US20260028335A1.

# target or test system: human GPR17 short isoform (Homo sapiens, UniProt Q13304)
# Sequence (Q13304 29-367): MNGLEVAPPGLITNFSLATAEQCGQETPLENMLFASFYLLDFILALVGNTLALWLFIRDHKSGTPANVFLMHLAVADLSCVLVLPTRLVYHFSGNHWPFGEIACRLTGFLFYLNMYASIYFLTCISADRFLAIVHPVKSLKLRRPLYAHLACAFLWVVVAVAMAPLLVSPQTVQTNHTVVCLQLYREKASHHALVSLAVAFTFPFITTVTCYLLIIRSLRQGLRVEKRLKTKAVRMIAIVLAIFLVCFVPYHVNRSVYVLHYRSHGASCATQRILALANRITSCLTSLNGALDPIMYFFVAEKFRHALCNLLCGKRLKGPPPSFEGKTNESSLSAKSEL
# experiment description: GPR17 cAMP assay (hGPR17 cAMP, antagonist mode, TR-FRET)
# condition set: CHO-K1 cells stably expressing human GPR17 short isoform; EC80 of agonist MDL29,951; forskolin 15 μM; IBMX 0.5 mM
metric: IC50 (nM)

Before answering, review these 3 worked examples.
Cc1onc(NS(=O)(=O)c2c[nH]c3cc(Cl)ccc23)c1Br    315
Cc1snc(NS(=O)(=O)c2c[nH]c3cc(Cl)ccc23)c1C1CC1    1110
Cc1cc(NS(=O)(=O)c2c[nH]c3cc(Cl)ccc23)ns1    629

A: COc1c(NS(=O)(=O)c2c[nH]c3cc(Cl)ccc23)nsc1C
B: CCCc1snc(NS(=O)(=O)c2c[nH]c3cc(Cl)ccc23)c1Cl
C: Cc1snc(NS(=O)(=O)c2c[nH]c3cc(Cl)ccc23)c1C
Problem: Order the records so the highest IC50 appears first and the lowest last. Kindly provide the labels arranged according to the requested ordering.
Result: A, C, B
